Collected Ratio (pH 7.4/6.0) of EC50 values appear next to each entry.
Molecular target: T1, human Nectin-4 on cells (human, UniProt Q96NY8 32-510)
T1 construct: whole, on cells; also called HEK293 cells expressing human Nectin-4; T47D cells that express human Nectin-4
T1 sequence (looked up): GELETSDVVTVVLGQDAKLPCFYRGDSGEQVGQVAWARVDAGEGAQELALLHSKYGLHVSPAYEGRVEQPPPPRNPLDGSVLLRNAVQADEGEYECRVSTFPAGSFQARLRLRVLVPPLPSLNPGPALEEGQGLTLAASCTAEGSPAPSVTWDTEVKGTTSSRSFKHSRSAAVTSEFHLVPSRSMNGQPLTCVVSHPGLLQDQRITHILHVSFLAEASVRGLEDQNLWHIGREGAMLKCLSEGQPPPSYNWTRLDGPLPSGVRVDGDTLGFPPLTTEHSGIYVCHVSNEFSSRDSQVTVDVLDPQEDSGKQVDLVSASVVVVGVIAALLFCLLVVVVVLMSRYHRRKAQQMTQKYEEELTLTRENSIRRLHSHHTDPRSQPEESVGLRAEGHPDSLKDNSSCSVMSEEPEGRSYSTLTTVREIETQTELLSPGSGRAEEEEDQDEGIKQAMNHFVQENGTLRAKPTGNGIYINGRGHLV
Experiment: FACS, T47D cells
Could you respond with only the numeric value?

>>> quantitative_readout("BAP-143-00-01 (antibody, V domains shown, Used as a conjugate with a linker payload (CAB ADC)) VH: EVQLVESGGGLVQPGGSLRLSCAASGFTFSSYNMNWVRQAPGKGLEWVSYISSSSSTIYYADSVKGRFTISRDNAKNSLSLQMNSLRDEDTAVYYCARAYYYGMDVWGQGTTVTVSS VL: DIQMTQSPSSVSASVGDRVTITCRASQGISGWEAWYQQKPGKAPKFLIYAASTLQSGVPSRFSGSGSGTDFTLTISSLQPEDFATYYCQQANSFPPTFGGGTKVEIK")
6.2
>>> quantitative_readout("BAP-143-06-33-16 (antibody, V domains shown, Used as a conjugate with a linker payload (CAB ADC)) VH: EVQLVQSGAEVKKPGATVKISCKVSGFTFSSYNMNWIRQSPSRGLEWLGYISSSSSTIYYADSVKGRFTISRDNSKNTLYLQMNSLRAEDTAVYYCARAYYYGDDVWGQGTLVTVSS VL: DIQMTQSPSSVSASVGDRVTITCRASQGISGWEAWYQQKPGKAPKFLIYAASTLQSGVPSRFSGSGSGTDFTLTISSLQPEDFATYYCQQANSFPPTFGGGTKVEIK")
3.4

Task: Reported Ratio (pH 7.4/6.0) of EC50 for BAP-143-06-24-16 (antibody, V domains shown, Used as a conjugate with a linker payload (CAB ADC)) VH: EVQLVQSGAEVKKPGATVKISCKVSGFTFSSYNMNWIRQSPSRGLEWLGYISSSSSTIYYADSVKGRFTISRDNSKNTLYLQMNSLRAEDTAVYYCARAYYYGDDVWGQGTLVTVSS VL: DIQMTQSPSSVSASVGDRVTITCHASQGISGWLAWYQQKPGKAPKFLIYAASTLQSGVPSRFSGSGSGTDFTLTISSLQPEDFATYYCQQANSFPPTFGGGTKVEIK : what is it?
Output: 2.9
